- system-tested: human delta-like ligand 3 (DLL3) on SHP77 cells (human) (UniProt Q9NYJ7)
- Sequence (Q9NYJ7 27-618, stated change not applied): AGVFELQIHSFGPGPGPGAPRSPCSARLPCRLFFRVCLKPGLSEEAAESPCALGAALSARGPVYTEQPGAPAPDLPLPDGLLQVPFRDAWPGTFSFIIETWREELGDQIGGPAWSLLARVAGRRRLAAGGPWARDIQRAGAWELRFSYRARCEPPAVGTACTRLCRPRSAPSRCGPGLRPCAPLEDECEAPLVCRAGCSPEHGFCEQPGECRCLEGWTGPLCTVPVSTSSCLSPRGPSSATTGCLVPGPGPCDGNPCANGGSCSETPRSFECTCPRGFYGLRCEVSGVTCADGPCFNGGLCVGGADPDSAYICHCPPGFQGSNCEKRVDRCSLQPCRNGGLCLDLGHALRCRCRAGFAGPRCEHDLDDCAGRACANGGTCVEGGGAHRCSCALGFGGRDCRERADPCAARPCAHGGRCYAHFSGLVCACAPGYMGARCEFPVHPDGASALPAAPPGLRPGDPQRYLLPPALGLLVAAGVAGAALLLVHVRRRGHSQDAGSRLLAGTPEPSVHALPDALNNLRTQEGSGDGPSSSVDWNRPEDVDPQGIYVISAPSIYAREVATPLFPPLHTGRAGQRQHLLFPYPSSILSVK
- assay-overview: FACS on SHP77 cells
Checkbox rule: MFI at 4 nM lower than 700 MFI = true; MFI at 4 nM not lower than 700 MFI = false.

| binder | qualitative-label |
| --- | --- |
| Hab006VL4VH1-hFc (scFv, part only; not given: scFv linker and human IgG1 Fc, V domains shown, not shown: another chain or arm of the molecule; a dimerising Fc or GST; small tags and cut ends) VL: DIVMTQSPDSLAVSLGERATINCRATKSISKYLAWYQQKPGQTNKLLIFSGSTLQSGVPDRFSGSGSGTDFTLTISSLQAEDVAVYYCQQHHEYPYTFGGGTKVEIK VH: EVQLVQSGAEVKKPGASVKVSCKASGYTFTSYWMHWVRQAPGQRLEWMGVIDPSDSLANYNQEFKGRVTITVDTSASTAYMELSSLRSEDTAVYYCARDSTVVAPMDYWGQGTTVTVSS | false |
| Hab006VL1VH4-hFc (scFv, part only; not given: VL-VH linker and human IgG1 Fc, V domains shown, not shown: another chain or arm of the molecule; a dimerising Fc or GST; small tags and cut ends) VL: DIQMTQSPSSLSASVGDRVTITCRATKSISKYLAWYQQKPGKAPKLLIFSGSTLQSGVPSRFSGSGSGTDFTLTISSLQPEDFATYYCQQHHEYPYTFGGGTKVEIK VH: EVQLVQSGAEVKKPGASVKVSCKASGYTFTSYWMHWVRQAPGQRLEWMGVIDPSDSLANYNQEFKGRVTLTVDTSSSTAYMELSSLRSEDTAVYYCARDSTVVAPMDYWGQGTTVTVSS | false |
| Hab008L3H5-hFc (scFv, part only; not given: scFv linker and human IgG1 Fc, V domains shown, not shown: another chain or arm of the molecule; a dimerising Fc or GST; small tags and cut ends) VL: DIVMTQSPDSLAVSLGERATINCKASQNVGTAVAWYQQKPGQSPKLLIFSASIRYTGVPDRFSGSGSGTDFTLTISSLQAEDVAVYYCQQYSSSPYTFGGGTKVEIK VH: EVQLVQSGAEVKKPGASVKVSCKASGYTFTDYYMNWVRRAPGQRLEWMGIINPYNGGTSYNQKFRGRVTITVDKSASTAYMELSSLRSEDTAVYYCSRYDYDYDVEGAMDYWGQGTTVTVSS | true |
| BI3 (antibody, human IgG1, kappa, V domains shown) VH: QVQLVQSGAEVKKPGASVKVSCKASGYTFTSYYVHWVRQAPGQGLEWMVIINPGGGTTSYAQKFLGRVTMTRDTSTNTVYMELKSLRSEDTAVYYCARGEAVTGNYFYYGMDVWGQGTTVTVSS VL: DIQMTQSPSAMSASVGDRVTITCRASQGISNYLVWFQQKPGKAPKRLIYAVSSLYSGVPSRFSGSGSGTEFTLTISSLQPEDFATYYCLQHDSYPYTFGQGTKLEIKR | true |
| Hab015VL4VH1b-hFc (scFv, part only; not given: VL-VH linker and human IgG1 Fc, V domains shown, not shown: another chain or arm of the molecule; a dimerising Fc or GST; small tags and cut ends) VL: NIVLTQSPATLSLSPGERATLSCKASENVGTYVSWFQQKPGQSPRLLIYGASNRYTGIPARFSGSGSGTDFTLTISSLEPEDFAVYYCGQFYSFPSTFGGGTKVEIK VH: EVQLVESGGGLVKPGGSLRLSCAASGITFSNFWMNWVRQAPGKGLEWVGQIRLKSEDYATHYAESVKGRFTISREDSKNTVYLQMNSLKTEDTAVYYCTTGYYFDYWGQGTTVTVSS | false |
| Hab008L1H2a-hFc (scFv, part only; not given: VL-VH linker and human IgG1 Fc, V domains shown, not shown: another chain or arm of the molecule; a dimerising Fc or GST; small tags and cut ends) VL: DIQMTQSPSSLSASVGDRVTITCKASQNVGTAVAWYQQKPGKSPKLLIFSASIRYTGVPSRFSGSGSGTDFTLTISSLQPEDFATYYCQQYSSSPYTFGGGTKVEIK VH: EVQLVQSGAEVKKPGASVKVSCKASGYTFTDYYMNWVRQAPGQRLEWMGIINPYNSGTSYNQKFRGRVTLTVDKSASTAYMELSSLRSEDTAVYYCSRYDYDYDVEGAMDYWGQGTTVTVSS | true |
| Hab015VL5VH6a-hFc (scFv, part only; not given: scFv linker and human IgG1 Fc, V domains shown, not shown: another chain or arm of the molecule; a dimerising Fc or GST; small tags and cut ends) VL: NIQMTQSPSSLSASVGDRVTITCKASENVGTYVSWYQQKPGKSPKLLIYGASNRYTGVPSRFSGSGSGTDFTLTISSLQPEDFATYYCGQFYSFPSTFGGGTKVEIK VH: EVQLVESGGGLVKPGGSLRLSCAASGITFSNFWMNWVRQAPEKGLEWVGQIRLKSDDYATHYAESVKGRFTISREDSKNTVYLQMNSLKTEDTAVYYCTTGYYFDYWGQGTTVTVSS | false |

# next binder below
Input: Hi there! Is MFI at 4 nM for Hab015VL5VH1a-hFc (scFv, part only; not given: scFv linker and human IgG1 Fc, V domains shown, not shown: another chain or arm of the molecule; a dimerising Fc or GST; small tags and cut ends) VL: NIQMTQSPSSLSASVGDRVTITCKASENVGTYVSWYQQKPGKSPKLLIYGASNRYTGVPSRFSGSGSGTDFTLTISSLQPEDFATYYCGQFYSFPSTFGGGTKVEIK VH: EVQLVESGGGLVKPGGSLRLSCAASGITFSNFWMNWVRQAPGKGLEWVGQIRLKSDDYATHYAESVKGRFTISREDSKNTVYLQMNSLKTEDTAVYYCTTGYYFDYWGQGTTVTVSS below 700 MFI, do you know?
Output: false
